Target: G-protein coupled receptor 151 (Homo sapiens)
Assay: GPR151 agonism via beta-arrestin recruitment – cell-based, PathHunter beta-arrestin, luminescence, set 2, confirmation (AID 1508608);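 also: 0% = plate median of compound wells and 100% = EA reagent high control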
Conditions: GPR151 PathHunter beta-arrestin cells, 90 min, at 11.2 µM, 100% = signal from added EA reagent
The whole screen tested about 2,300 compounds, of which about 20 (0.9%) were called active.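 The calls were made as follows: active = mean activation across replicates above 26.72%, the hit cutoff set for this confirmation screen; inactive = the rest.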 This excerpt belongs to a sample that is enriched for actives.
Result category, one only: active, inactive

Recorded results for 2 compounds are shown here.
>  <Compound>
CCOC(=O)c1cnc2ccc(OCC)cc2c1Nc1ccccc1OC

>  <System Under Test>
G-protein coupled receptor 151 (Homo sapiens)

>  <Answer Label>
inactive

$$$$
>  <Compound>
COc1ccc(-c2nc(-c3ccc(NC(=O)c4ccc(Br)o4)cc3)no2)cc1OC

>  <System Under Test>
G-protein coupled receptor 151 (Homo sapiens)

>  <Answer Label>
inactive

$$$$

Outcome logged for `Cc1ccc(NC(=O)/C(=C\c2ccco2)NC(=O)c2cccc(C)c2)cc1` in this assay:
inactive

Write down the call the test reported for this compound. Item: `COc1ccc(CCNc2ccnc(Nc3ccc(-n4ccnc4)cc3)n2)cc1`
active

Kindly provide the recorded test outcome for the following compound: `COc1ccc(C)cc1NC(=O)c1sc2ncn(CC(=O)Nc3ccc(C)c(Cl)c3)c(=O)c2c1C`
inactive

----------
activation by entry:
Molecular target: G-protein coupled receptor 151 (Homo sapiens)
Assay: GPR151 agonism via beta-arrestin recruitment – cell-based, PathHunter beta-arrestin, luminescence, set 2, confirmation (AID 1508608);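 also: 0% = plate median of compound wells and 100% = EA reagent high control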
Details: GPR151 PathHunter beta-arrestin cells, 90 min, at 11.2 µM, stronger effect = higher value, 100% = signal from added EA reagent
Screen size: about 2,300 compounds; about 20 (0.9%) were called active. Shown is part of a subset that was picked to be rich in actives.
Just the number please, in %, no unit attached.

Some solved cases for reference:
>  <Molecule>
COc1cc(NC(=O)c2nn3c(C(F)(F)F)cc(-c4ccco4)nc3c2Cl)c(OC)cc1Cl

>  <Unit String>
%

>  <activation>
-0.24

$$$$
>  <Molecule>
CCn1c(=S)sc2c(=O)[nH]c(C)nc21

>  <Unit String>
%

>  <activation>
-7.13

$$$$
>  <Molecule>
Cn1c(=O)oc2cc(S(=O)(=O)N3CCCC(C(=O)N4CCOCC4)C3)ccc21 (stereo not given)

>  <Unit String>
%

>  <activation>
11.4

$$$$
>  <Molecule>
CCCCc1ccc(C2=N/C(=C\c3ccc(F)cc3)C(=O)N2c2ccc(Cl)cc2C)cc1

>  <Unit String>
%

>  <activation>
-6.96

$$$$
>  <Molecule>
CCOC(=O)C1=C(C)N=c2s/c(=C\c3cc([N+](=O)[O-])ccc3N3CCOCC3)c(=O)n2C1c1ccc(OC)c(OC)c1 (stereo not given)

>  <Unit String>
%

>  <activation>
0.23

$$$$
>  <Molecule>
COc1ccc(-c2nc(Nc3ccccc3F)c3ccccc3n2)cc1OC

>  <Unit String>
%

>  <activation>
8.64

$$$$

Provide activation, system G-protein coupled receptor 151 (Homo sapiens), entry CC(C)CC(NC(=O)C(C)NC(=O)CNC(=O)C(NC=O)C(C)C)C(=O)NC(C)C(=O)NC(C(=O)NC(C(=O)NC(C(=O)NC(Cc1c[nH]c2ccccc12)C(=O)NC(CC(C)C)C(=O)NC(Cc1c[nH]c2ccccc12)C(=O)NC(CC(C)C)C(=O)NC(Cc1c[nH]c2ccccc12)C(=O)NC(CC(C)C)C(=O)NC(Cc1c[nH]c2ccccc12)C(=O)NCCO)C(C)C)C(C)C)C(C)C (stereo not given)
101

# lookup: G-protein coupled receptor 151 (Homo sapiens) activation, key = `O=C(c1ccco1)N1CCN(C(=O)C2(S(=O)(=O)c3ccc(Cl)cc3)CC2)CC1`
4.46

Report activation from G-protein coupled receptor 151 (Homo sapiens) testing of `CCCc1[nH]n(-c2ccc(F)cc2)c(=O)c1C=Nc1ccc(OCC)cc1`
-1.39

Recall the reported activation of `COc1ccc(-c2onc(C(F)(F)F)c2-c2ccc(Cl)cc2)c(O)c1` when tested on G-protein coupled receptor 151 (Homo sapiens).
0.9

Look up and report activation, with G-protein coupled receptor 151 (Homo sapiens) as system, for Cc1ccc2nc(NC(=O)CCCN3C(=S)NC(C)(C)CC3C)sc2c1 (stereo not given)
2.74

Send back G-protein coupled receptor 151 (Homo sapiens) activation of O=C1C2CCCN2C(c2ccco2)N1c1ccc(F)cc1 (stereo not given) only.
2.43

Report its activation with G-protein coupled receptor 151 (Homo sapiens) as the test system: Cn1nc2c(c1C(=O)NCC1CC(Cc3cccc(F)c3)=NO1)CCCC2 (stereo not given)
-2

GET activation | system: G-protein coupled receptor 151 (Homo sapiens) | item: `N/C(=N\c1nc(=O)c2ccccc2s1)NC(=O)c1cccc(Br)c1`
0.6

State measured activation of the molecule `COC(=O)c1cc(Nc2ncnc3c2cnn3-c2ccc(Cl)cc2)cc(C(=O)OC)c1` with G-protein coupled receptor 151 (Homo sapiens).
5.3

// output activation; input `O/N=C(\C=N\O)C12CC3CC(CC(C3)C1)C2` ; system G-protein coupled receptor 151 (Homo sapiens)
-1.69

For G-protein coupled receptor 151 (Homo sapiens), give activation of the listed molecule: `CC(=O)c1ccc(N2C(=O)c3ccc(Oc4ccc([N+](=O)[O-])cc4[N+](=O)[O-])cc3C2=O)cc1`
-8.73

Report measured activation on G-protein coupled receptor 151 (Homo sapiens); entry: COc1ccc(C(=O)NC(C)c2csc(C)n2)cc1OC1CCN(C(C)=O)CC1 (stereo not given)
1.6

State, for G-protein coupled receptor 151 (Homo sapiens), measured activation of the molecule listed here: COc1ccccc1C1SC(NC(C)=O)=NN1C(C)=O (stereo not given)
4.02

# assay system G-protein coupled receptor 151 (Homo sapiens): give activation of `CC1=NN(c2ccccc2)C(=O)/C1=C\c1ccc([N+](=O)[O-])cc1`
-3.53

Look up and report activation, with G-protein coupled receptor 151 (Homo sapiens) as system, for `Clc1ccc(-n2ncc3c(NCc4ccco4)ncnc32)cc1`
3.54

Look up and report activation, with G-protein coupled receptor 151 (Homo sapiens) as system, for `COc1ccc(-n2nc3c(c2NC(=O)c2c(F)cccc2F)CS(=O)(=O)C3)cc1`
-1.16

Lab note: G-protein coupled receptor 151 (Homo sapiens) assay, enter activation for `Cc1ccc(COc2cccc3c2CCN(C)C3=O)cc1` here
-4.68

Report activation under test system G-protein coupled receptor 151 (Homo sapiens) for `CN1CCN(c2cc(-c3cn[nH]c3)ccc2NC(=O)Cc2cccc(Cl)c2)CC1` .
35.5
